- measurement_notes: cell viability in Huh7 cells, primary screen, cytotoxicity control for HCV replication inhibitor project, CellTiter-Glo luminescence, basal, 48 h (AID 1143);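 note: Huh7 hepatoma cells carrying a hepatitis C replication reporter with no stimulus; test concentration not given here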
- experimental_parameters: Huh7 HCV replicon, higher = more signal, called active from +8 up or from −8 down
Would you mind labelling by z-score? At or over -0.4 is 1, under is 0.

Entry C=CCC(OC(C)=O)[C@@H]1[C@@H](N(Cc2cc3ccccc3o2)C(=O)c2ccc(-c3ccccc3)cc2)c2cc(OCCCO)ccc2N1C(=O)c1ccc2ccccc2n1 (some centres not stated) : is its z-score no less than -0.4? 1

Entry CC1CC/C=C\[C@H]2OC34C=CCN(c5ccc(Cl)cc5)C(=O)[C@H]3N(CCCO)C(=O)[C@]4(C)C2C(=O)O1 (some centres not stated) : is its z-score no less than -0.4? 1

Entry CC(c1ccccc1)C(O)C1C=CC2C(=O)N(c3ccccc3)C(=O)C2N1Nc1ccc(C#N)cc1 (configuration not stated) : is its z-score no less than -0.4? 0

Entry C=CCN1C(=O)[C@]2(O[C@H](CCn3cc([C@H](O)c4ccccc4)nn3)[C@@H]([Si](C)(C)c3ccc(OC)cc3)[C@@H]2C)c2cc(N3C(=O)c4cccc5cccc3c45)ccc21 : is its z-score no less than -0.4? 0

Entry CC(C)CNC(=O)[C@@H]1c2ccccc2C(=O)N(Cc2ccccc2Cl)[C@H]1c1ccc(CO)cc1 : is its z-score no less than -0.4? 1

Entry O=C1C2C=CC(C(O)c3ccc([N+](=O)[O-])cc3)N(Nc3ccccc3)C2C(=O)N1c1ccccc1 (configuration not stated) : is its z-score no less than -0.4? 1
